- SUBJECT OF TEST: T1, cynomolgus soluble urokinase plasminogen activator receptor (suPAR) (cynomolgus, UniProt Q9GK78 23-303, limits assumed)
- T1 construct: Column head says only 'cynomologus'; also called cynomolgus suPAR; cynomolgus uPAR
- TEST DESCRIPTION: BLI (Octet) off-rate screen of scFv clones
# note: boundary value 0.0002 s⁻¹ maps to No; koff below it maps to Yes

Please state whether koff is below 0.0002 s⁻¹ for suPAR_DB02_D04 (scFv, V domains shown, scFv clone from phage display) VH: QVQLVQSGAEVKKPGASVKVSCKASGFTIKDYYMHWVRQAPGQGLEWMGWIDPDSGGTNYAEKFQGRVTMTRDTSTSTVYMELSSLRSEDTAVYYCARGYDVDWFVYWGQGTLVTVSS VL: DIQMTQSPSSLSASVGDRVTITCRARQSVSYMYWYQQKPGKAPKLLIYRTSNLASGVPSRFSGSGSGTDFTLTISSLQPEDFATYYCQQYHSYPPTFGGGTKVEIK
No

Please state whether koff is below 0.0002 s⁻¹ for suPAR_DB02_E10 (scFv, V domains shown, scFv clone from phage display) VH: QVQLVQSGAEVKKPGASVKVSCKASGYTFTNYFMHWVRQAPGQGLEWMGWIDHENGNTIYDQKFQGRVTMTRDTSTSTVYMELSSLRSEDTAVYYCARGYDVDWFVYWGQGTLVTVSS VL: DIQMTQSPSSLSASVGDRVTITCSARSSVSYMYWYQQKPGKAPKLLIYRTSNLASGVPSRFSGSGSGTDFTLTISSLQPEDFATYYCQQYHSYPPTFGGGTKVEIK
Yes

Please state whether koff is below 0.0002 s⁻¹ for suPAR_DB02_G02 (scFv, V domains shown, scFv clone from phage display) VH: QVQLVQSGAEVKKPGASVKVSCKASGYTFTRYYMHWVRQAPGQGLEWMGWIDHENGSTIYAQKFQGRVTMTRDTSTSTVYMELSSLRSEDTAVYYCARGYDVDWFVYWGQGTLVTVSS VL: DIQMTQSPSSLSASVGDRVTITCSARSSVSYMYWYQQKPGKAPKLLIYRTSSLQSGVPSRFSGSGSGTDFTLTISSLQPEDFATYYCQQYHSYPPTFGGGTKVEIK
Yes

Please state whether koff is below 0.0002 s⁻¹ for suPAR_DB02_F06 (scFv, V domains shown, scFv clone from phage display) VH: QVQLVQSGAEVKKPGASVKVSCKASGFNFTDYYIHWVRQAPGQGLEWMGWIDPNSGSTNYAQNFQGRVTMTRDTSTSTVYMELSSLRSEDTAVYYCARGYMVDWFVYWGQGTLVTVSS VL: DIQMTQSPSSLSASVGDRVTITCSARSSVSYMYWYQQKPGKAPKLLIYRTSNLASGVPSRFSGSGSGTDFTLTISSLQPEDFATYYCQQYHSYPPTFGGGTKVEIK
Yes

Please state whether koff is below 0.0002 s⁻¹ for suPAR_DB02_D01 (scFv, V domains shown, scFv clone from phage display) VH: QVQLVQSGAEVKKPGASVKVSCKASGYTFTDYYMHWVRQAPGQGLEWMGWIDHENGNTIYDQKFQGRVTMTRDTSTSTVYMELSSLRSEDTAVYYCARGYDVDWFVYWGQGTLVTVSS VL: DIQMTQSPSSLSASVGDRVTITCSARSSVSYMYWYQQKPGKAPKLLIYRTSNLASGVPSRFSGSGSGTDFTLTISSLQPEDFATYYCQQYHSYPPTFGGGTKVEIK
Yes
